Hello, the source for this data is ChEMBL document CHEMBL3751775, in case you need it.

- EXPERIMENT_SUMMARY: Binding affinity to Bacillus anthracis PurE by Surface Plasmon Resonance analysis
MEASURED_METRIC: log10 of Kd (log10 of the value in µM)
Please note: log10 values; quantity Kd; unit µM.

Sample records with log10 of Kd:
[[record]]
compound = "O=C(O)c1cc2cc(F)ccc2[nH]1"
observed_measurement = 2.37

[[record]]
compound = "Cc1cnc(NC(=O)c2ccoc2C)s1"
observed_measurement = 1.31

[[record]]
compound = "Oc1cc(Cl)c(Cl)cc1O"
observed_measurement = 2.01

[[record]]
compound = "CCOc1ccccc1C(=S)N1CCOCC1"
observed_measurement = 1.86


Entry under test: CCc1ccc(C(=O)Nc2nncs2)s1 . Its log10 of Kd was 1.13

GET /value?item= O=C(O)c1ccc(O)c(O)c1 &field=log10 of Kd returns 2.44

The reported log10 of Kd of the compound Cc1ccc(C(=S)c2nnns2)cc1 was 1.78

Entry COc1ccc(-c2cc(N)[nH]n2)cc1 , log10 of Kd reported as 2.17

What the record says about COc1ccc2ncc(N)cc2c1 : log10 of Kd is 2.42

What the record says about Nc1nn2c(-c3ccccc3)nnc2s1 : log10 of Kd is 2.08

Entry Cc1ccc(C(N)c2ccncc2)cc1 (stereo not given) ; log10 of Kd = 2.85

Per the record, NCc1cc(-c2ccccc2Cl)on1 has log10 of Kd of 2.65

For reference, reported log10 of Kd for NC(=S)N1CCc2ccccc21 stands at 1.55

// log10 of Kd lookup, compound = CCOc1cc(CO)c(Br)cc1OC , result: 2.20

For reference, reported log10 of Kd for Cc1cc(C(=O)Nc2cccc(F)c2)no1 stands at 1.90
